Experiment: CCTE_Mundy_HCI_iCellGluta_NOG_NeuronCount: CCTE's Neurite Outgrowth Assay in iCellGluta cells for Neuron Count, Mundy Lab (AID 2284340);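 note: cells fixed about 48 h after compound addition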
Results filed as inconclusive are left out. The source made the active and inactive calls. Rule for the calls: active = hit-call score of the fitted dose curve at least 0.9, where 1 is the maximum; inconclusive = response in the unintended direction; inactive = score below 0.9.
One label from this list, please: active, inactive

Example entries begin here.
CC(C)N(C(=O)SCC(Cl)=C(Cl)Cl)C(C)C	active
CCOP(=S)(OCC)Oc1ccc([N+](=O)[O-])cc1	inactive
CCCCSP(=O)(SCCCC)SCCCC	active

Request: Given C[N+]1(C)CCCCC1 , state the outcome it received in this test.
Response: inactive

Request: Status in this test for CCOP(=S)(Oc1cnc(C(C)(C)C)nc1)OC(C)C (stereo not given) ?
Response: active

* * *

Test: BSK_4H_Eotaxin3: BioMAP Diversity Plus: 4H Assay for Eotaxin 3 Biomarker Activity (AID 2283000)
Settings: primary human endothelial cells (HUVEC); actives raise or lower the signal
Calls of active or inactive are those of the source. The calls were made as follows: active = hit-call score of the fitted dose curve at least 0.9, where 1 is the maximum; inactive = score below 0.9.
Use one of these outcomes when replying: 1.0 (active), 0.0 (inactive)

CNc1cnn(-c2cccc(C(F)(F)F)c2)c(=O)c1Cl	0.0
N#CSCSC#N	1.0
COc1cc(OC)nc(Sc2cccc(Cl)c2C(=O)O)n1	0.0

Request: Entry C=C(C)[C@H]1Cc2c(ccc3c2O[C@@H]2COc4cc(OC)c(OC)cc4[C@@H]2C3=O)O1 : call = ?
Response: 1.0

Request: Fill in: this test's call for CCOC(=O)COc1cc(-c2nn(C)c(OC(F)F)c2Cl)c(F)cc1Cl is ___
Response: 0.0

Request: State the result this test recorded for Nc1nc(N)nc(NC2CC2)n1 .
Response: 0.0

* * *

Assay: BSK_BE3C_SRB: Viability Assessment in the BioMAP Diversity Plus: BE3C Assay (AID 2283028);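 note: measured 24 h after chemical dosing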
Settings: primary human bronchial epithelial cells
Active and inactive are the calls of the source. The calls were made as follows: active = hit-call score of the fitted dose curve at least 0.9, where 1 is the maximum; inactive = score below 0.9.
Hello, when you answer, please use one of the following outcomes: active, inactive

Request: Each compound tested received a call. Report the one for CC(C1CC1)C(O)(Cn1cncn1)c1ccc(Cl)cc1 (centres undefined) .
Response: inactive

Request: How was CCC(=NOC/C=C/Cl)C1=C(O)CC(C2CCOCC2)CC1=O (centres undefined) classified in this test?
Response: inactive

Request: Hi, do you know how CSc1nnc(C(C)(C)C)c(=O)n1N came out in this test?
Response: inactive

Request: For COc1ccc(C(=CC(=O)N2CCOCC2)c2ccc(Cl)cc2)cc1OC , what call appears in the results of this test?
Response: inactive

Request: What did this assay record as the result for CNC(=O)ON=C(SC)C(=O)N(C)C ?
Response: inactive

Request: Any idea what this test logged for CC[C@H](C)[C@H]1O[C@]2(C=C[C@@H]1C)C[C@@H]1C[C@@H](C/C=C(\C)[C@@H](O[C@H]3C[C@H](OC)[C@@H](O[C@H]4C[C@H](OC)[C@@H](NC)[C@H](C)O4)[C@H](C)O3)[C@@H](C)/C=C/C=C3\CO[C@@H]4[C@H](O)C(C)=C[C@@H](C(=O)O1)[C@]34O)O2 ?
Response: active

* * *

Experiment: CCTE_Shafer_MEA_acute_spike_number: CCTE's Neural Acute Assay for Total Number of Spikes, Shafer Lab (AID 2284008)
Calls of active or inactive are those of the source. The calls were made as follows: active = hit-call score of the fitted dose curve at least 0.9, where 1 is the maximum; inactive = score below 0.9.
Give one outcome, nothing more. List: Yes = active, No = inactive

Example results:
O=[N+]([O-])c1cc(C(F)(F)F)c(Cl)c([N+](=O)[O-])c1Nc1ncc(C(F)(F)F)cc1Cl	Yes
CCCOCC(=Nc1ccc(Cl)cc1C(F)(F)F)n1ccnc1	Yes
CCOP(=O)(NC(C)C)Oc1ccc(SC)c(C)c1 (centres undefined)	Yes
CC(=NC#N)N(C)Cc1ccc(Cl)nc1	No
COP(=O)(OC)C(O)C(Cl)(Cl)Cl (centres undefined)	No
CC(COc1ccc(Oc2ccccc2)cc1)Oc1ccccn1 (centres undefined)	Yes
CCOP(=S)(OCC)SCCSCC	No
FC(F)C(F)(F)OCC(Cn1cncn1)c1ccc(Cl)cc1Cl (centres undefined)	Yes
CON=C(C(=O)OC)c1ccccc1CON=C(C)c1cccc(C(F)(F)F)c1	Yes
CCOC(=O)CC(SP(=O)(OC)OC)C(=O)OCC (centres undefined)	No

Here is another molecule to look at.
Request: Tell me the assay call for CCOP(=S)(Oc1cnc(C(C)(C)C)nc1)OC(C)C (centres undefined) please.
Response: Yes

* * *

Read-out: Monocyte Chemoattractant Protein-1 (MCP1), CCL2 (gene 6347)
Assay: BSK_LPS_MCP1: BioMAP Diversity Plus: LPS Assay for Monocyte Chemoattractant Protein-1 (MCP1) Biomarker Activity (AID 2283081)
Conditions: primary human HUVEC with PBMC; actives raise or lower the signal
Activity calls are given as the source filed them. How the source made its calls: active means hit-call score of the fitted dose curve at least 0.9, where 1 is the maximum; inactive means score below 0.9.
// classify into yes (1) = active, no (0) = inactive

S=C1NCCN1	no (0)
CN(C)[C@@H]1C(=O)C(C(N)=O)=C(O)[C@@]2(O)C(=O)C3=C(O)c4c(O)cccc4[C@@](C)(O)[C@H]3[C@H](O)[C@@H]12	no (0)
COc1cc(OC)nc(Sc2cccc(Cl)c2C(=O)O)n1	no (0)

Consider the record given below.
Request: Please let me know the test result on file for CCC(CC)Nc1c([N+](=O)[O-])cc(C)c(C)c1[N+](=O)[O-] .
Response: yes (1)

* * *

Test: CCTE_Simmons_MITO_max_resp_rate: CCTE's HepG2 Seahorse XF Respirometric Screening Assay at Maximal Respiratory State [uncoupled], Simmons Lab (AID 2284002)
Details: actives raise or lower the signal
Method: CCTE_Simmons_MITO is cell-based, respirometric assay using HepG2 cells and a Seahorse XF Analyzer to measure oxygen consumption rates over four temporal phases spanning a total of 72 minutes: pre-injection (pre-treatment), basal (following test compound injection), maximal (following FCCP uncoupler injection), and inhibited (following rotenone/antimycin A injection)CCTE_Simmons_MITO_max_resp_rate is one of 4 assay components calculated from the CCTE_Simmons_MITO assay. […]
Active and inactive are the calls of the source. The calls were made as follows: active = hit-call score of the fitted dose curve at least 0.9, where 1 is the maximum; inactive = score below 0.9.
OUTCOME_MEASURE: AC50

Guide cases for AC50, answers given:
C=C(C)[C@H]1Cc2c(ccc3c2O[C@@H]2COc4cc(OC)c(OC)cc4[C@@H]2C3=O)O1	0.0663 µM (active)
CCCCOC(=O)[C@@H](C)Oc1ccc(Oc2ccc(C#N)cc2F)cc1	inactive
COP(=O)(OC)OC(Br)C(Cl)(Cl)Br (stereo unspecified)	inactive
CCOP(=S)(Oc1cnc(C(C)(C)C)nc1)OC(C)C (stereo unspecified)	50 µM (active)
CCCOCC(=Nc1ccc(Cl)cc1C(F)(F)F)n1ccnc1	15.4 µM (active)

Turning now to a further record.
Request: Entry under review: C[Si](Cn1cncn1)(c1ccc(F)cc1)c1ccc(F)cc1 . Reported AC50?
Response: 16.2 µM (active)

* * *

Biological target: Hypoxia-inducible factor 1-alpha (Homo sapiens) (UniProt Q16665)
Sequence (Q16665 whole entry, looked up): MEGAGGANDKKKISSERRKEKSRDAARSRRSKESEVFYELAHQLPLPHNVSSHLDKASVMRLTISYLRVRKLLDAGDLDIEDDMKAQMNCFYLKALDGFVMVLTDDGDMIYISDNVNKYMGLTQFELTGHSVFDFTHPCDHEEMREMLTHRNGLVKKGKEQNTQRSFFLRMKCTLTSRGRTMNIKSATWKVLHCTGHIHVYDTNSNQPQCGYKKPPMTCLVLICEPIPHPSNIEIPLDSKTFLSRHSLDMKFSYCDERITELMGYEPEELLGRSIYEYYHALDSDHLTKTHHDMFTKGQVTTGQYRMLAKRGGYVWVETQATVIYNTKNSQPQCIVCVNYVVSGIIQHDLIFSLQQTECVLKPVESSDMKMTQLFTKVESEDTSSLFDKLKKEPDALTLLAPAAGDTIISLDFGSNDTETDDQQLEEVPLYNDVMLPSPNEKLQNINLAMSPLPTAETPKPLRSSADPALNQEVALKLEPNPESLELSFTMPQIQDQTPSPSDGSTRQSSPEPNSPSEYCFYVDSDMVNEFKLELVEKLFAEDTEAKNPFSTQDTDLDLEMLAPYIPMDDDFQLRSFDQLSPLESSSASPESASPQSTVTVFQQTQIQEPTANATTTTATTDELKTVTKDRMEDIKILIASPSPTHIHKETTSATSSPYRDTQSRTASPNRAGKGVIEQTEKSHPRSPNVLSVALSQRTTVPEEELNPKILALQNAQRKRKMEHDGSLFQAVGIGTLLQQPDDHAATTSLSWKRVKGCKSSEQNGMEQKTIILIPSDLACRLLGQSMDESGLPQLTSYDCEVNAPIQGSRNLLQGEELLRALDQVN
Assay: ATG_HIF1a_CIS: Attagene CIS-FACTORIAL HepG2 Assay for human Hypoxia Inducible Factor 1 (HIF1A) (AID 2282951)
Details: HepG2 Attagene cis-factorial HIF1a reporter transcription; actives raise or lower the signal
Active and inactive are the calls of the source. The calls were made as follows: active = hit-call score of the fitted dose curve at least 0.9, where 1 is the maximum; inactive = score below 0.9.
Classes to choose from: class 1 for active, class 0 for inactive

CCCOCC(=Nc1ccc(Cl)cc1C(F)(F)F)n1ccnc1	class 0
CCOP(=O)(NC(C)C)Oc1ccc(SC)c(C)c1 (configuration not stated)	class 0
C=C(C)[C@H]1Cc2c(ccc3c2O[C@@H]2COc4cc(OC)c(OC)cc4[C@@H]2C3=O)O1	class 1
CCCSP(=O)(OCC)SCCC	class 0
CCCSP(=O)(OCC)Oc1ccc(Br)cc1Cl (configuration not stated)	class 0
CC(C)N(C(=O)SCC(Cl)=C(Cl)Cl)C(C)C	class 0
CCc1cccc(C)c1N(C(=O)CCl)C(C)COC (configuration not stated)	class 0
CCC(=NOC/C=C/Cl)C1=C(O)CC(C2CCOCC2)CC1=O (configuration not stated)	class 0
COc1cc(OC)nc(Sc2cccc(Cl)c2C(=O)O)n1	class 0
CN(C)C(=O)Nc1cccc(C(F)(F)F)c1	class 0

Request: Can you look up the reported call for FC(F)C(F)(F)OCC(Cn1cncn1)c1ccc(Cl)cc1Cl (configuration not stated) for me?
Response: class 1

Request: Give the logged outcome of this assay for the following compound: C[Si](Cn1cncn1)(c1ccc(F)cc1)c1ccc(F)cc1
Response: class 1

* * *

Experiment: CCTE_Shafer_MEA_acute_per_network_burst_electrodes_number_mean: CCTE's Neural Acute Assay for Mean Number of Electrodes in a Network Burst, Shafer Lab (AID 2284021);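 note: curves fitted for decreases only so hits reduce electrodes per burst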
The source made the active and inactive calls. The calls were made as follows: active = hit-call score of the fitted dose curve at least 0.9, where 1 is the maximum; inactive = score below 0.9.
OUTCOME_MEASURE: AC50

C#CCC1=C(C)C(OC(=O)C2C(C=C(C)C)C2(C)C)CC1=O (stereo unspecified)	5.78 µM (active)
COc1cc(OC)nc(Sc2cccc(Cl)c2C(=O)O)n1	inactive
O=[N+]([O-])c1cc(C(F)(F)F)c(Cl)c([N+](=O)[O-])c1Nc1ncc(C(F)(F)F)cc1Cl	0.481 µM (active)
CCOP(=S)(Oc1cnc(C(C)(C)C)nc1)OC(C)C (stereo unspecified)	20 µM (active)

Request: # input compound: O=C(O)c1cc(Oc2ccc(C(F)(F)F)cc2Cl)ccc1[N+](=O)[O-] ; wanted: its AC50
Response: inactive

Request: So what's the measured AC50 for this one? CC(C)=CC1C(C(=O)OCN2C(=O)C3=C(CCCC3)C2=O)C1(C)C (stereo unspecified)
Response: inactive

Request: Query (compound): FC(F)C(F)(F)OCC(Cn1cncn1)c1ccc(Cl)cc1Cl (stereo unspecified) ; field requested: AC50
Response: inactive

Request: Quick check: AC50 of CN(C)NC(=O)CCC(=O)O ?
Response: inactive

Request: Would you mind telling me what AC50 value was observed for C=C(C)[C@H]1Cc2c(ccc3c2O[C@@H]2COc4cc(OC)c(OC)cc4[C@@H]2C3=O)O1 ?
Response: inactive

Request: Record request: AC50 value, item COP(=O)(NC(C)=O)SC (stereo unspecified)
Response: inactive

Request: Tell me the measured AC50 of C[N+]1(C)CCCCC1 , please.
Response: inactive
